The reported measurements were obtained from patent US4439460A.

Assay: Thermal stability examination: oven at 170° C., HPLC analysis
Type: physicochemical
Details: after seven, fifteen or twenty-five minutes heating at about 170° C.
Where a SMILES comes first, the peptide text is derived from it.
# reported degradation; entries follow

Task: What value of measured degradation is listed for COC(=O)[C@H](Cc1ccccc1)NC(=O)[C@@H](N)CC(=O)O [A, aspartylphenylalanine methyl ester] (H-Asp-Phe-OMe) ?
Result: ≤ 85%

Task: Could you tell me which degradation is on file for COC(=O)[C@H](Cc1ccccc1)NC(=O)[C@@H](N)CC(=O)O.O=S(=O)(O)O [C] (H-Asp-Phe-OMe) ?
Result: ≤ 85%

* * *

Assay: Thermal stability examination: oven at 170° C., HPLC analysis
Format: physicochemical
Conditions: oven 170° C., 25 minutes, HPLC
Where a SMILES comes first, the peptide text is derived from it.
Assign class by % Degradation, 25 Minutes (170° C.): not lower than 40% means met; lower than 40% means not met.

Past entries and their recorded results:
compound	class_name
COC(=O)[C@H](Cc1ccccc1)NC(=O)[C@@H](N)CC(=O)O.COC(=O)[C@H](Cc1ccccc1)NC(=O)[C@@H](N)CC(=O)O.O=S(=O)(O)O [Ex. 1] (H-Asp-Phe-OMe)	not met
COC(=O)[C@H](Cc1ccccc1)NC(=O)[C@@H](N)CC(=O)O.CS(=O)(=O)O [Ex. 2] (H-Asp-Phe-OMe)	not met
COC(=O)[C@H](Cc1ccccc1)NC(=O)[C@@H](N)CC(=O)O [A, aspartylphenylalanine methyl ester] (H-Asp-Phe-OMe)	met
COC(=O)[C@H](Cc1ccccc1)NC(=O)[C@@H](N)CC(=O)O.Cl [B] (H-Asp-Phe-OMe)	met
COC(=O)[C@H](Cc1ccccc1)NC(=O)[C@@H](N)CC(=O)O.O=S(=O)(O)O [C] (H-Asp-Phe-OMe)	met

With those in mind, consider the next compound.
Task: Is % Degradation, 25 Minutes (170° C.) at least 40%? Consider COC(=O)[C@H](Cc1ccccc1)NC(=O)[C@@H](N)CC(=O)O.O=P(O)(O)O [D] (H-Asp-Phe-OMe)
Result: met

* * *

Test: Thermal stability examination: oven at 170° C., HPLC analysis
Assay type: physicochemical
Conditions: oven 170° C., 15 minutes, HPLC
Where a SMILES comes first, the peptide text is derived from it.
endpoint_label: % Degradation, 15 Minutes (170° C.) (%)
Hi! Could you send only the number? It should be in %, unit omitted.

Past entries and their recorded results:
compound	number
COC(=O)[C@H](Cc1ccccc1)NC(=O)[C@@H](N)CC(=O)O.O=S(=O)(O)O [C] (H-Asp-Phe-OMe)	78.2
COC(=O)[C@H](Cc1ccccc1)NC(=O)[C@@H](N)CC(=O)O.CS(=O)(=O)O [Ex. 2] (H-Asp-Phe-OMe)	0.5
COC(=O)[C@H](Cc1ccccc1)NC(=O)[C@@H](N)CC(=O)O [A, aspartylphenylalanine methyl ester] (H-Asp-Phe-OMe)	22.2
COC(=O)[C@H](Cc1ccccc1)NC(=O)[C@@H](N)CC(=O)O.O=P(O)(O)O [D] (H-Asp-Phe-OMe)	60.6
COC(=O)[C@H](Cc1ccccc1)NC(=O)[C@@H](N)CC(=O)O.COC(=O)[C@H](Cc1ccccc1)NC(=O)[C@@H](N)CC(=O)O.O=S(=O)(O)O [Ex. 1] (H-Asp-Phe-OMe)	0

Task: Tell me the measured % Degradation, 15 Minutes (170° C.) of COC(=O)[C@H](Cc1ccccc1)NC(=O)[C@@H](N)CC(=O)O.Cl [B] (H-Asp-Phe-OMe) , please.
Result: 8.5

* * *

Test: Rate of dissolution studies in beverage media
Format: physicochemical
Conditions: ambient temperature coffee (80 ml), with stirring; salt equimolar with 57 mg APM
Where a SMILES comes first, the peptide text is derived from it.
endpoint_label: Media Dissolution Times, medium 4 (s)
The response must be a number in s with no trailing unit.

Take a look at these entries with their results.
molecule	Media Dissolution Times, medium 4 / s
COC(=O)[C@H](Cc1ccccc1)NC(=O)[C@@H](N)CC(=O)O.O=P(O)(O)O [D] (H-Asp-Phe-OMe)	600
COC(=O)[C@H](Cc1ccccc1)NC(=O)[C@@H](N)CC(=O)O.COC(=O)[C@H](Cc1ccccc1)NC(=O)[C@@H](N)CC(=O)O.O=S(=O)(O)O [Ex. 1] (H-Asp-Phe-OMe)	22
COC(=O)[C@H](Cc1ccccc1)NC(=O)[C@@H](N)CC(=O)O.CS(=O)(=O)O [Ex. 2] (H-Asp-Phe-OMe)	167

Task: // query Media Dissolution Times, medium 4 value for entry COC(=O)[C@H](Cc1ccccc1)NC(=O)[C@@H](N)CC(=O)O.Cl [B] (H-Asp-Phe-OMe)
Result: 90

Task: Need Media Dissolution Times, medium 4 of COC(=O)[C@H](Cc1ccccc1)NC(=O)[C@@H](N)CC(=O)O.O=S(=O)(O)O [C] (H-Asp-Phe-OMe) , thanks.
Result: 330

* * *

Test: Thermal stability examination: oven at 170° C., HPLC analysis
Format: physicochemical
Details: oven 170° C., 7 minutes, HPLC
Where a SMILES comes first, the peptide text is derived from it.
endpoint_label: % Degradation, 7 Minutes (170° C.) (%)
// units = %; emit number, no label

Below, 5 compounds whose answers are already recorded.
compound	endpoint_label	number
COC(=O)[C@H](Cc1ccccc1)NC(=O)[C@@H](N)CC(=O)O.O=P(O)(O)O [D] (H-Asp-Phe-OMe)	% Degradation, 7 Minutes (170° C.)	0.1
COC(=O)[C@H](Cc1ccccc1)NC(=O)[C@@H](N)CC(=O)O [A, aspartylphenylalanine methyl ester] (H-Asp-Phe-OMe)	% Degradation, 7 Minutes (170° C.)	0
COC(=O)[C@H](Cc1ccccc1)NC(=O)[C@@H](N)CC(=O)O.Cl [B] (H-Asp-Phe-OMe)	% Degradation, 7 Minutes (170° C.)	2
COC(=O)[C@H](Cc1ccccc1)NC(=O)[C@@H](N)CC(=O)O.COC(=O)[C@H](Cc1ccccc1)NC(=O)[C@@H](N)CC(=O)O.O=S(=O)(O)O [Ex. 1] (H-Asp-Phe-OMe)	% Degradation, 7 Minutes (170° C.)	1.3
COC(=O)[C@H](Cc1ccccc1)NC(=O)[C@@H](N)CC(=O)O.CS(=O)(=O)O [Ex. 2] (H-Asp-Phe-OMe)	% Degradation, 7 Minutes (170° C.)	0.0

Moving on to the next compound.
Task: Any idea what % Degradation, 7 Minutes (170° C.) was measured for COC(=O)[C@H](Cc1ccccc1)NC(=O)[C@@H](N)CC(=O)O.O=S(=O)(O)O [C] (H-Asp-Phe-OMe) ?
Result: 62.8
